System: Mus musculus
Experiment: Neurotoxicity in Albino CF1 mouse at 300 mg/kg, ip after 4 hrs by Rotarod test
Format: toxicity, organism-based
Design: dose 300 mg/kg, route intraperitoneal
Conditions: in vivo
RECORDED_METRIC: Activity

Worked examples, 6 compounds total:
{"COMPOUND": "Cc1ccc(NC(=O)CCCN2C(=O)c3ccccc3C2=O)cc1", "TARGET_SYSTEM": "Mus musculus", "Activity": "Active"}
{"COMPOUND": "O=C(CCCN1C(=O)c2ccccc2C1=O)NN=C(c1ccccc1)c1ccccc1", "TARGET_SYSTEM": "Mus musculus", "Activity": "Not Active"}
{"COMPOUND": "C/C(=N/NC(=O)CCCN1C(=O)c2ccccc2C1=O)c1ccccc1O", "TARGET_SYSTEM": "Mus musculus", "Activity": "Not Active"}
{"COMPOUND": "CC/C(C)=N/NC(=O)CCCN1C(=O)c2ccccc2C1=O", "TARGET_SYSTEM": "Mus musculus", "Activity": "Not Active"}
{"COMPOUND": "Cc1ccc(NC(=O)CCCN2C(=O)c3ccccc3C2=O)c(C)c1", "TARGET_SYSTEM": "Mus musculus", "Activity": "Active"}
{"COMPOUND": "COc1cc(/C=N\\NC(=O)CCCN2C(=O)c3ccccc3C2=O)ccc1O", "TARGET_SYSTEM": "Mus musculus", "Activity": "Not Active"}

State, in one line, measured Activity of Cc1ccc(C)c(NC(=O)CCCN2C(=O)c3ccccc3C2=O)c1
Active

For the compound O=C(CCCN1C(=O)c2ccccc2C1=O)N/N=C\c1ccccc1 , report Activity.
Not Active

Please give the documented Activity of Cc1cccc(C)c1NC(=O)CCCN1C(=O)c2ccccc2C1=O
Active

----------
Test system: Mus musculus
Assay: Anticonvulsant activity against subcutaneous strychnine-induced seizure in Albino CF1 mouse at 300 mg/kg, ip after 4 hrs
Type: functional, organism-based
Design: dose 300 mg/kg
Activity calls are given as the source filed them. The rule behind the calls is not given here.
// one of true = active, false = inactive, no free text

Solved entries (count: 3):
{"SMILES_CODE": "O=C(CCCN1C(=O)c2ccccc2C1=O)N/N=C\\c1ccc([N+](=O)[O-])cc1", "TARGET_SYSTEM": "Mus musculus", "CLASS_LABEL": "false"}
{"SMILES_CODE": "O=C(CCCN1C(=O)c2ccccc2C1=O)Nc1ccccc1Br", "TARGET_SYSTEM": "Mus musculus", "CLASS_LABEL": "false"}
{"SMILES_CODE": "O=C(CCCN1C(=O)c2ccccc2C1=O)Nc1ccc(Cl)cc1", "TARGET_SYSTEM": "Mus musculus", "CLASS_LABEL": "true"}

Hi team, can someone confirm the assay call for COc1cc(/C=N\NC(=O)CCCN2C(=O)c3ccccc3C2=O)ccc1O ?
false

# outcome recorded in this test, key = Cc1ccc(NC(=O)CCCN2C(=O)c3ccccc3C2=O)cc1
false

Hey, what did the test say about O=C(CCCN1C(=O)c2ccccc2C1=O)N/N=C\c1cccc([N+](=O)[O-])c1 ?
false

Field: outcome | Entry: Cc1cc(NC(=O)CCCN2C(=O)c3ccccc3C2=O)ccc1Br
false

Look up the recorded call for O=C(CCCN1C(=O)c2ccccc2C1=O)Nc1cccc(F)c1 in this test.
true

Status in this test for O=C1NC(=O)C(c2ccccc2)(c2ccccc2)N1 ?
false

For Cc1ccc(NC(=O)CCCN2C(=O)c3ccccc3C2=O)c(C)c1 , which call appears in the assay record?
false

Name the outcome recorded for O=C(CCCN1C(=O)c2ccccc2C1=O)NN=C(c1ccccc1)c1ccccc1 in the assay.
false

----------
System: Mus musculus
Assay: Neurotoxicity in Albino CF1 mouse at 300 mg/kg, ip after 0.5 hrs by Rotarod test
Type: toxicity, organism-based
Design: dose 300 mg/kg, route intraperitoneal
Conditions: in vivo
RECORDED_METRIC: Activity

Examples with their reported Activity follow.
{"MOLECULE": "O=C(CCCN1C(=O)c2ccccc2C1=O)Nc1ccccc1Br", "OBSERVED_MEASUREMENT": "Not Active"}
{"MOLECULE": "CCC1(C)CC(=O)NC1=O (centres undefined) [ETHOSUXIMIDE]", "OBSERVED_MEASUREMENT": "Not Active"}
{"MOLECULE": "Cc1ccc(NC(=O)CCCN2C(=O)c3ccccc3C2=O)cc1", "OBSERVED_MEASUREMENT": "Not Active"}
{"MOLECULE": "C/C(=N/NC(=O)CCCN1C(=O)c2ccccc2C1=O)c1ccccc1", "OBSERVED_MEASUREMENT": "Not Active"}
{"MOLECULE": "Cc1ccc(NC(=O)CCCN2C(=O)c3ccccc3C2=O)c(C)c1", "OBSERVED_MEASUREMENT": "Active"}

Report Activity for O=C(CCCN1C(=O)c2ccccc2C1=O)N/N=C\c1ccc([N+](=O)[O-])cc1
Not Active

Fill in Activity for record O=C(CCCN1C(=O)c2ccccc2C1=O)Nc1cccc(F)c1
Active

Consider the molecule C/C(=N/NC(=O)CCCN1C(=O)c2ccccc2C1=O)c1ccc(O)cc1 and give its recorded Activity.
Not Active

Read off the recorded Activity for C/C(=N/NC(=O)CCCN1C(=O)c2ccccc2C1=O)c1ccc([N+](=O)[O-])cc1
Active

Please supply the value of reported Activity for the item C/C(=N/NC(=O)CCCN1C(=O)c2ccccc2C1=O)c1ccccc1O
Not Active

----------
System: Mus musculus
Assay: Anticonvulsant activity against intraperitoneal picrotoxin-induced seizure in Albino CF1 mouse at 300 mg/kg, ip after 4 hrs
Assay type: functional, organism-based
Design: dose 300 mg/kg
Calls of active or inactive are those of the source. The rule behind the calls is not given here.
Output constraint: value belongs to active, inactive

A selection of reference data follows.
{"MOLECULE": "C/C(=N/NC(=O)CCCN1C(=O)c2ccccc2C1=O)c1cccc(N)c1", "CLASS_LABEL": "inactive"}
{"MOLECULE": "O=C(CCCN1C(=O)c2ccccc2C1=O)Nc1cccc(F)c1", "CLASS_LABEL": "active"}
{"MOLECULE": "Cc1ccc(NC(=O)CCCN2C(=O)c3ccccc3C2=O)cc1", "CLASS_LABEL": "inactive"}
{"MOLECULE": "Cc1c(Cl)cccc1NC(=O)CCCN1C(=O)c2ccccc2C1=O", "CLASS_LABEL": "active"}
{"MOLECULE": "C/C(=N/NC(=O)CCCN1C(=O)c2ccccc2C1=O)c1ccccc1O", "CLASS_LABEL": "active"}
{"MOLECULE": "O=C(CCCN1C(=O)c2ccccc2C1=O)N/N=C\\c1ccc([N+](=O)[O-])cc1", "CLASS_LABEL": "inactive"}
{"MOLECULE": "CCC1(C)CC(=O)NC1=O (stereo not drawn) [ETHOSUXIMIDE]", "CLASS_LABEL": "inactive"}

Shifting focus to the molecule that follows.
Hi team, can someone confirm the assay call for C/C(=N/NC(=O)CCCN1C(=O)c2ccccc2C1=O)c1ccc([N+](=O)[O-])cc1 ?
inactive

----------
Test system: Mus musculus
Test: Neurotoxicity in Albino CF1 mouse at 300 mg/kg, ip after 4 hrs by Rotarod test
Type: toxicity, organism-based
Design: dose 300 mg/kg, route intraperitoneal
Conditions: in vivo
RECORDED_METRIC: Activity

Example compounds with recorded Activity:
{"COMPOUND": "C/C(=N/NC(=O)CCCN1C(=O)c2ccccc2C1=O)c1ccc(C)cc1", "OBSERVED_MEASUREMENT": "Not Active"}
{"COMPOUND": "O=C(CCCN1C(=O)c2ccccc2C1=O)Nc1ccc(Cl)cc1", "OBSERVED_MEASUREMENT": "Active"}
{"COMPOUND": "O=C(CCCN1C(=O)c2ccccc2C1=O)Nc1cccc(F)c1", "OBSERVED_MEASUREMENT": "Not Active"}
{"COMPOUND": "CCC1(C)CC(=O)NC1=O (centres undefined) [ETHOSUXIMIDE]", "OBSERVED_MEASUREMENT": "Not Active"}
{"COMPOUND": "O=C(CCCN1C(=O)c2ccccc2C1=O)N/N=C\\c1ccccc1O", "OBSERVED_MEASUREMENT": "Not Active"}

Look up Mus musculus data: Activity of O=C(CCCN1C(=O)c2ccccc2C1=O)Nc1ccccc1Br , then report it.
Not Active

----------
Tested on: Mus musculus
Experiment: Neurotoxicity in Albino CF1 mouse at 300 mg/kg, ip after 4 hrs by Rotarod test
Assay type: toxicity, organism-based
Design: dose 300 mg/kg, route intraperitoneal
Conditions: in vivo
RECORDED_METRIC: Activity

{"SMILES_CODE": "C/C(=N/NC(=O)CCCN1C(=O)c2ccccc2C1=O)c1cccc(N)c1", "Activity": "Not Active"}
{"SMILES_CODE": "C/C(=N/NC(=O)CCCN1C(=O)c2ccccc2C1=O)c1ccc(O)cc1", "Activity": "Not Active"}
{"SMILES_CODE": "Cc1cc(NC(=O)CCCN2C(=O)c3ccccc3C2=O)ccc1Br", "Activity": "Active"}
{"SMILES_CODE": "O=C(CCCN1C(=O)c2ccccc2C1=O)Nc1ccccc1C(F)(F)F", "Activity": "Active"}
{"SMILES_CODE": "O=C(CCCN1C(=O)c2ccccc2C1=O)N/N=C\\c1cccc([N+](=O)[O-])c1", "Activity": "Not Active"}
{"SMILES_CODE": "C/C(=N/NC(=O)CCCN1C(=O)c2ccccc2C1=O)c1ccc([N+](=O)[O-])cc1", "Activity": "Not Active"}

Using known records, supply Activity for C/C(=N/NC(=O)CCCN1C(=O)c2ccccc2C1=O)c1ccccc1
Not Active

Entry O=C(CCCN1C(=O)c2ccccc2C1=O)N/N=C\c1ccc([N+](=O)[O-])cc1 needs its Activity filled in; supply it.
Not Active

// provenance: ChEMBL document CHEMBL1142874
